Listing of recorded pEC50 by entry.
tested on: Human immunodeficiency virus 2; assay: Antiviral activity against HIV2 ROD infected in human MT4 cells assessed as reduction in virus-induced cytopathogenicity incubated for 4 days by MTT method; format: functional, organism-based; conditions: Human immunodeficiency virus 2, ROD, MT4, 96 h
pEC50: −log10 of the molar value.
observation.type: pEC50

>>> df
                         structure_as_smiles  assay_result
 0  Cc1ccc(NC(=O)CS(=O)(=O)c2nccc(Oc3c(C)cc(C#N)cc3C)n2)cc1        < 5.13
 1  Cc1cc(C#N)cc(C)c1Oc1ccnc(S(=O)(=O)CC(=O)Nc2cccc(F)c2)n1        < 4.59
 2  Cc1cc(C#N)cc(C)c1Oc1ccnc(SCC(=O)Nc2ccc(C#N)cc2)n1        < 3.52
 3  Cc1cc(C#N)cc(C)c1Oc1ccnc(S(=O)(=O)CC(=O)Nc2ccc(C#N)cc2)n1        ≤ 4.49
 4  Cc1cc(C#N)cc(C)c1Oc1ccnc(S(=O)(=O)CC(=O)Nc2ccc(Cl)c(Cl)c2)n1        < 4.93
 5  Cc1cc(C#N)cc(C)c1Oc1ccnc(S(=O)(=O)CC(=O)Nc2ccc(C#N)cc2F)n1        < 3.57
 6  Cc1cc(C#N)cc(C)c1Oc1ccnc(S(=O)(=O)CC(=O)Nc2ccc([N+](=O)[O-])cc2)n1        < 4.22
 7  Cc1cc(C#N)cc(C)c1Oc1ccnc(S(=O)(=O)CC(=O)Nc2cccc([N+](=O)[O-])c2)n1        < 4.63
 8  Cc1cc(C#N)cc(C)c1Oc1ccnc(S(=O)(=O)CC(=O)Nc2ccc(Br)cc2)n1        < 4.81
 9  COc1ccc(NC(=O)CS(=O)(=O)c2nccc(Oc3c(C)cc(C#N)cc3C)n2)cc1        < 5.29
10  Cc1ccc(NC(=O)CS(=O)(=O)c2nccc(Oc3c(C)cc(C#N)cc3C)n2)cc1C        < 4.86
11  Cc1cc(C#N)cc(C)c1Oc1ccnc(S(=O)(=O)CC(=O)Nc2ccccc2)n1        < 4.53
12  Cc1cc(C#N)cc(C)c1Oc1ccnc(S(=O)(=O)CC(=O)Nc2cc(Cl)cc(Cl)c2)n1        < 4.62
13  Cc1cc(C#N)cc(C)c1Oc1ccnc(S(=O)(=O)CC(=O)Nc2ccc(F)cc2)n1        < 4.58
14  Cc1cc(C#N)cc(C)c1Oc1ccnc(S(=O)(=O)CC(=O)Nc2ccccc2F)n1        < 4.55
15  Cc1cc(C#N)cc(C)c1Oc1ccnc(S(=O)(=O)CC(=O)Nc2ccc(Cl)cc2)n1        < 4.78
16  Cc1cccc(NC(=O)CS(=O)(=O)c2nccc(Oc3c(C)cc(C#N)cc3C)n2)c1        < 4.59
17  Cc1cc(C#N)cc(C)c1Oc1ccnc(S(=O)(=O)CC(=O)Nc2cccc(Cl)c2)n1        < 4.59
18  Cc1cc(C#N)cc(C)c1Oc1ccnc(S(=O)(=O)CC(=O)Nc2ccc(Cl)cc2Cl)n1        < 4.98
19  Cc1cc(C#N)cc(C)c1Oc1ccnc(S(=O)(=O)CC(=O)Nc2ccccc2Cl)n1        < 4.90
